Entries annotated with measured composite z-score
protocol.text: small molecules captured by biotinylated probe aFGF10 – biochemical, small-molecule microarray, fluorescence 635/667, stem cell growth factor project, primary screen (AID 1071);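 further: score merges 667 nm spot intensity and signal to noise from triplicate slides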
test.parameters: higher = more signal
metric.name: composite z-score

- compound: "N[C@@H](Cc1ccccc1)C(=O)NCc1cn(Cc2ccccc2)nn1"
  result: 0.157
- compound: "C=CCNC(=O)[C@@H]1[C@H]2C(=O)O[C@H](c3ccccc3)[C@H](c3ccccc3)N2[C@H](c2ccccc2OCCO)[C@@]12C(=O)Nc1ccc(C#CCC(C(=O)OC)C(=O)OC)cc12"
  result: 0.422
- compound: "COC(=O)[C@@]1(Cc2ccc(F)cc2)[C@H]2c3cc(C(=O)N4CCCC4)n(Cc4ccc(C)c(F)c4F)c3C[C@H]2CN1C(=O)c1ccccc1"
  result: -0.227
- compound: "Cc1ccc(NN2C(C(O)c3c(F)cccc3Cl)C=CC3C(=O)N(C4CCCCC4)C(=O)C32)cc1 (stereo not drawn)"
  result: 0.507
- compound: "COCC(=C=CC[C@H](O)c1ccc(CO)o1)CCO"
  result: 0.553
- compound: "CN(C)C(=O)[C@]1(CCC(=O)OC(C)(C)C)N=C(c2ccc(OCCCO)cc2)O[C@@H]1c1ccccc1CN=[N+]=[N-]"
  result: 0.488
- compound: "CCCC=C(CCC)[C@@H](NC(=O)C(C)(C)C)c1ccc(C(=O)OC)cc1"
  result: 0.0431
- compound: "O=C(O)[C@@H]1[C@@H]2C(=O)N(c3ccccc3)C(=O)[C@@H]2C[C@@H]1Sc1ccccc1"
  result: 0.105
